Measured AUC(0-t) of individual entries
assay: Pharmacokinetic test of prodrug compounds in mouse; type: in vivo, females, non-fasting); details: female, C57BL/6J; mouse plasma, IV 1 mg/kg of the active compound; read-out: AUClast after IV administration
State just the number; it will be interpreted in ng·h/mL.

N[C@@H](Cc1cccc(S(=O)(=O)N2CC(Oc3cccc(F)c3)(c3ccccc3)C2)c1)C(=O)O [Example 42]; 499

Now for a further compound.
Recorded AUC(0-t) of N[C@@H](Cc1cccc(S(=O)(=O)N2CC(Oc3ccc(F)cc3)(c3ccccc3)C2)c1)C(=O)O [Example 41] , please. 728
